assay-summary: viability gain of MRP-1-high H69AR cells under doxorubicin, pilot screen, MRP-1 activator project, CellTiter-Glo, duplicate (AID 807);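 further: compound pretreatment 18-22 h then 72 h combined with doxorubicin; 0% = doxorubicin alone and 100% = vehicle without doxorubicin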
protocol-conditions: H69AR viability with doxorubicin, CellTiter-Glo luminescence; at 10 µM; stronger effect = higher value
Please respond with reported viability increase for every item in the list.
Numbers only, in %.

See these solved cases before continuing.
compound	result-value
COc1ccccc1-n1c2c(cc(C(=O)N3CCC(C)CC3)c1=O)C(=O)CC(C)(C)C2	-0.6
Cc1cc(-c2nnco2)c(C)n1-c1ccc(F)cc1	-2.15
COc1cccc(NS(=O)(=O)c2cn(C)c(=O)n(C)c2=O)c1	-0.89
O=C(NCc1ccc(F)cc1)c1cnc2n(c1=O)CCS2	2.85
Oc1c(C(c2ccccc2)N2CCN(Cc3ccccc3)CC2)sc2ncnn12 (stereo unspecified)	1.62
CCCCN(C)CCNC(=O)Cn1c(=O)sc2ccccc21	-2.43
CCOc1ccc(C2C(C#N)=C(N)SC(N)=C2C#N)cc1OCC	-0.77
COC(=O)CSc1nc2ccccc2nc1SCC(=O)OC	-2

Could I get viability increase for every one of these entries?
1. CCCS(=O)(=O)NCCc1cc2ccc(OC)cc2[nH]c1=O
2. O=C(c1ccco1)N1CCN(c2ncccn2)CC1

[A]
-2.79
-1.88

###

assay-summary: inhibitors of the yeast RAM network, pilot screen, dse1pr::URA3 reporter, 5-FOA selection (AID 869);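 further: 0% = DMSO wells with no growth and 100% = 10 µM 1-NA-PP1 with full growth; RAM network block rescues cells from 5-FOA so hits raise OD615 growth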
protocol-conditions: S. cerevisiae dse1pr::URA3 5-FOA growth, OD615, 2 d; at 10 µM; stronger effect = higher value; strain carries analog-sensitive mutant Cbk1 kinase
measurement-name: inhibition (%)
Numbers only, in %.

Could I get inhibition for every one of these entries?
1. CSc1ncccc1C(=O)OCC(=O)c1cc2ccccc2o1
2. CC(C)C(C(=O)NC(C)(C)C)N1C(=O)c2ccccc2C1=O (stereo unspecified)
3. COC(=O)CC1Oc2ccccc2N(Cc2ccccc2)C1=O (stereo unspecified)
4. CCC1CCCCN1Cc1nc2c(c(=O)n(C)c(=O)n2C)n1Cc1cccc2ccccc12 (stereo unspecified)
5. Brc1ccc(-c2noc(COc3ccc4c(c3)CCC4)n2)o1
6. Cc1ccc(-c2nnc3n2N=C(c2ccc(Br)cc2)CS3)cc1
7. COc1ccc(C(=O)Nc2ccc(S(=O)(=O)Nc3cc(C)nc(C)n3)cc2)c(OC)c1

[A]
[3.42, -0.63, 1.56, 0.67, 1.22, 2.41, 1.77]

Could I get inhibition for every one of these entries?
1. CCN1CCN(CC(=O)Nc2ccc(C)cc2C)C(=O)C1=O
2. COc1cccc(-c2nc(CS(=O)(=O)CC(=O)NCc3ccccc3OC)c(C)o2)c1
3. O=C(NC1CCCCCCC1)C1CCC(CNc2c(N3CCCC3)c(=O)c2=O)CC1 (stereo unspecified)
4. CCOC(=O)C1C(=O)Oc2ccc3ccccc3c2C1C1CCOC1=O (stereo unspecified)

[A]
[1.74, 1.55, 0.85, 0.105]

###

Please respond with reported inhibition for every item in the list.
assay-summary: inhibitors of the yeast RAM network, pilot screen, dse1pr::URA3 reporter, 5-FOA selection (AID 869);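 further: 0% = DMSO wells with no growth and 100% = 10 µM 1-NA-PP1 with full growth; RAM network block rescues cells from 5-FOA so hits raise OD615 growth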
protocol-conditions: S. cerevisiae dse1pr::URA3 5-FOA growth, OD615, 2 d; at 10 µM; stronger effect = higher value; strain carries analog-sensitive mutant Cbk1 kinase
Numbers only, in %.

compound	unit-name	result-value
CN(C)c1nc2c(c(=O)[nH]c(=O)n2C)n1Cc1ccc(F)cc1	%	1.74

Could I get inhibition for every one of these entries?
1. CCCCn1c2nc3ccccc3nc2c2c(=N)oc(C)nc21
2. O=C(c1cccc(S(=O)(=O)N2CCOCC2)c1)N1CCOCC1
3. C=CCc1ccccc1OCC(O)CN1CCN(c2ccccc2OC)CC1 (centres undefined)
4. Cn1c(NC(=O)C(C)(C)Oc2ccc(Cl)cc2)cc(=O)n(C)c1=O
5. CCN(C(=O)COC(=O)C(Cc1ccccc1)N1C(=O)c2ccccc2C1=O)C1CCS(=O)(=O)C1 (centres undefined)
6. Cc1ccc(C)c2[nH]c(=O)c(CCNC(=O)CC(C)C)cc12
7. CCOc1cccc(NC(=O)c2ccc(S(=O)(=O)N3CCCC3)cc2)c1

[A]
1: 0.265; 2: 0.835; 3: 1.39; 4: 2.34; 5: 0.495; 6: 1.75; 7: 0.965

###

assay-summary: Restrictive medium S. cerevisiae growth inhibition, OD615, pilot screen of yeast lifespan reduction project, restrictive growth control (AID 706);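 further: modified DeaD lifespan yeast strain shifted to restrictive glucose medium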
protocol-conditions: OD615, 48 h, at 10 µM
Activity calls are given as the source filed them.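 Rule for the calls: active = growth inhibition above a set limit, 3 SD over mean compound inhibition, in both replicates (cut at about 43% in these data); inconclusive = above the limit in only one replicate; inactive = at or below the limit in both replicates.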
Outcome field: choose from t = active, f = inactive

compound	category-label
C=CCNC(=O)c1c(Cl)cccc1Cl	f
O=C1c2ccccc2C(Nc2cccnc2)N1Cc1ccc2c(c1)OCO2 (configuration not stated)	f
O=C(Cn1c(N2CCN(c3ccccc3)CC2)nc2ccccc21)c1ccccc1	f

[Q] What is the recorded call for this compound in the test? CC(C)c1ccc(N(CC(=O)O)S(=O)(=O)c2cccnc2)cc1
[A] f

[Q] Next compound up: C=CCn1c(NC(C)c2cc(Cl)ccc2O)nc2ccccc21 (configuration not stated)
[A] f

[Q] Next compound up: O=C(Cn1ncc2c1-c1ccccc1OC2)Nc1ccc(S(=O)(=O)N2CCCCC2)cc1
[A] f

[Q] Next compound up: CCOc1ccccc1NC(=O)CN(c1cc(C)cc(C)c1)S(=O)(=O)c1c(C)noc1C
[A] f

[Q] Next compound up: CCOc1ccc(CCNC(=O)c2oc3c(c2C)-c2[nH]ncc2CC3)cc1OCC
[A] f

[Q] Next compound up: CCOCCCNC(=O)CCCn1nc(C)n2c(cc3sccc32)c1=O
[A] f

[Q] Next compound up: CC(=O)Nc1nc2ccccc2n1CCN(C)C
[A] f

###

assay-summary: growth suppression of beta-catenin knockout HCT116, pilot screen, human colon tumor cells (AID 823);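 further: 0% = wells killed by 20 µM Hyamine and 100% = untreated DMSO cell wells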
protocol-conditions: CellTiter-Glo, 60 h, at 10 µM, stronger effect = lower value
Results filed as inconclusive are left out.
Rule for this label: criterion met means viability is less than 90%; criterion not met means viability is at least 90%.

[Q] Check if viability falls below 90% for O=C(NCCCNC(=O)c1cccs1)c1cccs1 .
[A] criterion not met

[Q] Next molecule up: CCOC(=O)CSCc1nc(-c2ccc(Cl)cc2)oc1C
[A] criterion not met

[Q] Next molecule up: Cc1cc(C)c(S(=O)(=O)Nc2ccc(OCC(=O)O)cc2)c(C)c1
[A] criterion not met

[Q] Next molecule up: Cn1c(Cn2c(=O)sc3ccccc32)nnc1SCC(N)=O
[A] criterion not met

[Q] Next molecule up: CCCc1cc(C(=O)Nc2sc3c(c2C(=O)OCC)CCCC3)no1
[A] criterion not met

[Q] Next molecule up: Cc1ccc(C)c2[nH]c(=O)c(CCNC(=O)C(C)C)cc12
[A] criterion not met

[Q] Next molecule up: CCCC(=O)C1=C(SCC)CC(C)(C)C(C(=O)OC)C1=O (configuration not stated)
[A] criterion met

[Q] Next molecule up: CCCCCn1c(=N)n(CC(O)COc2ccccc2OC)c2ccccc21 (configuration not stated)
[A] criterion met

[Q] Next molecule up: CSc1cc(/C=N/O)c(SC)s1
[A] criterion not met

[Q] Next molecule up: Oc1cnn(-c2ccccc2)c1
[A] criterion not met

[Q] Next molecule up: CC(C)(C)n1nc2c(c1NC(=O)Cc1cccs1)CSC2
[A] criterion not met

[Q] Next molecule up: Fc1ccc(-n2[nH]nnc2=S)cc1N1CCCC1
[A] criterion not met

###

Please respond with reported inhibition for every item in the list.
assay-summary: inhibitors of the yeast RAM network, pilot screen, dse1pr::URA3 reporter, 5-FOA selection (AID 869);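 further: 0% = DMSO wells with no growth and 100% = 10 µM 1-NA-PP1 with full growth; RAM network block rescues cells from 5-FOA so hits raise OD615 growth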
protocol-conditions: S. cerevisiae dse1pr::URA3 5-FOA growth, OD615, 2 d; at 10 µM; stronger effect = higher value; strain carries analog-sensitive mutant Cbk1 kinase
One number for each entry, in %.

See these solved cases before continuing.
compound	result-value
Cc1cc2ccccc2n1CCNC(=O)c1cccs1	1.69
COc1ccc(-c2cc(C(F)(F)F)nc(N3CCN(C)CC3)n2)cc1	1.43
c1ccc2cc3[nH]c(CN4CCCCC4)nc3cc2c1	1.58
Nc1ccc(Nc2ccccc2)c(Cl)c1	2.79
CSc1ccc(C2C(C#N)=C(N)N(c3ccccc3)C3=C2C(=O)CCC3)cc1 (centres undefined)	1.18

Could I get inhibition for every one of these entries?
1. CCOC(=O)Cn1c(=O)oc2cc(S(=O)(=O)Nc3cccc(C)c3)ccc21
2. O=C(Cn1cc2c(n1)CCCC2)NCC1CCCO1 (centres undefined)
3. Cn1c(C(=O)NC2CCCC2)cc2c(=O)n(C)c3ccccc3c21
4. COc1ccc(CC(=O)Nc2c3c(nn2C(C)(C)C)CS(=O)C3)cc1 (centres undefined)
5. Cc1csc2ncc(C(=O)Nc3ccc4c(c3)OCCO4)c(=O)n12
6. CCNc1nc(OCCNS(=O)(=O)c2cc(C)ccc2C)nc(N(C)C)n1

[A]
1
1.89
1.21
1.24
2.96
0.025

###

assay-summary: inhibitors of the yeast RAM network, pilot screen, dse1pr::URA3 reporter, 5-FOA selection (AID 869);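 further: 0% = DMSO wells with no growth and 100% = 10 µM 1-NA-PP1 with full growth; RAM network block rescues cells from 5-FOA so hits raise OD615 growth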
protocol-conditions: S. cerevisiae dse1pr::URA3 5-FOA growth, OD615, 2 d; at 10 µM; stronger effect = higher value; strain carries analog-sensitive mutant Cbk1 kinase
measurement-name: inhibition (%)
One number for each entry, in %.

See these solved cases before continuing.
compound	unit-name	result-value
CCn1c2ccccc2c2nnc(SCN3C(=O)c4ccccc4C3=O)nc21	%	2.71
Cn1c(=O)oc2cc(S(=O)(=O)N3CCCC3)ccc21	%	0.645
Clc1ccc(Cc2nnc(-c3ccccc3Br)o2)cc1	%	-0.5
CCC(C)NC(=O)CS(=O)Cc1nc(-c2ccccc2C)oc1C (configuration not stated)	%	1.9

Could I get inhibition for every one of these entries?
1. C=CCOC(=O)C1=C(C)NC(=O)NC1c1ccc(Cl)cc1 (configuration not stated)
2. N#Cc1ccc(Oc2cccc(C(=O)O)c2)cc1C#N
3. CC(=O)N1CCN(c2ccc(NCc3ccc(C)s3)cc2)CC1
4. COc1ccc(CN2CCCCC2c2cccnc2)c(OC)c1C (configuration not stated)
5. Cc1nnc(SCC(=O)Nc2ccc3c(c2)COC3=O)n1-c1ccccc1

[A]
[-0.115, 1.34, 1.92, 1.25, 3.27]

Could I get inhibition for every one of these entries?
1. CN(c1ccc(C(=O)O)cc1)S(=O)(=O)c1ccccc1
2. CC(=O)Nc1nc2ccccc2n1CCN(C)C
3. COc1cccc(C(=O)NC2CC3CCCC(C2)N3CC(=O)Nc2ccc(N(C)C)cc2)c1 (configuration not stated)

[A]
1. 1.14
2. 2.95
3. 0.955
